tested-on: Ras-related protein Rab-7a (Canis lupus familiaris)
Sequence (P18067 whole entry): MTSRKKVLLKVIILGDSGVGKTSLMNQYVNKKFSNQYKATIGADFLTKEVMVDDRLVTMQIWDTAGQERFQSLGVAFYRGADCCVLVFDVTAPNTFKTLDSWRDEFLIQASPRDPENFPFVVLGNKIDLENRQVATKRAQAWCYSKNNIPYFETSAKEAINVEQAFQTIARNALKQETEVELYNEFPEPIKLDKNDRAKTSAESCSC
measurement-notes: Rab7 GTP binding inhibitors, analog potency, SAR follow-up, biochemical, oxadiazole analogs, multiplex bead flow cytometry (AID 2031)
test-parameters: inactive by the depositor's call
quantity-kind: log10 EC50 (log10 of the value in µM)
Scale: log10; quantity: EC50; unit before log: µM

Reference set (3 entries):
{"columns": ["compound", "log10 EC50"],
 "data": [
  ["COc1ccc(-c2noc(CCC(=O)N3CCN(c4cc(C)ccc4C)CC3)n2)cc1", 0.38],
  ["Cc1ccc(C)c(N2CCN(C(=O)CCc3nc(-c4ccccc4Br)no3)CC2)c1", 0.62],
  ["Cc1ccc(C)c(N2CCN(C(=O)CCc3nc(-c4ccccc4Cl)no3)CC2)c1", 1.48]
]}

Ask: Tell us which log10 EC50 value is on record for Cc1ccc(C)c(N2CCN(C(=O)CCc3nc(-c4ccccc4C)no3)CC2)c1
Reply: 0.74

Ask: Tell us which log10 EC50 value is on record for COc1ccc(-c2noc(CCC(=O)N3CCN(c4ccccc4Cl)CC3)n2)cc1
Reply: 0.36

Ask: Tell us which log10 EC50 value is on record for COc1ccc(-c2noc(CCC(=O)N3CCN(c4ccccc4C(F)(F)F)CC3)n2)cc1
Reply: 0.29

Ask: Tell us which log10 EC50 value is on record for COc1ccc(-c2noc(CC(=O)N3CCN(c4cc(C)ccc4C)CC3)n2)cc1
Reply: 1.48
